Recorded values, source ChEMBL document CHEMBL5223132.

biological target: Sigma intracellular receptor 2 (Homo sapiens); experiment: Displacement of [H3]DTG from sigma 2 receptor (unknown origin) by competition binding assay
value_type: IC50 (µM)

| compound_smiles | value_type | recorded_measurement |
| --- | --- | --- |
| CCN(C/C=C\c1ccc(C2CCCCC2)c(Cl)c1)C1CCCCC1 | IC50 | 0.045 |

---

target: Sigma non-opioid intracellular receptor 1 (Cavia porcellus); assay: Binding affinity to sigma 1 receptor expressed in guinea pig brain; type: tissue-based
Sequence (Q60492 whole entry): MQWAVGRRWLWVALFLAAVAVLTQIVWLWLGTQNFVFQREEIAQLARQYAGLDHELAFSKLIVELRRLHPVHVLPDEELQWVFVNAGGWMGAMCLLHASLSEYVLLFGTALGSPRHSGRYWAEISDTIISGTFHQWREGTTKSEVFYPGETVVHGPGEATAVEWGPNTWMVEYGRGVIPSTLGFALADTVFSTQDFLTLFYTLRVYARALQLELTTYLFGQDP

| compound_smiles | Ki |
| --- | --- |
| CCN1CCN(Cc2cccc3ccccc23)[C@H](CCO)C1 | 0.9 nM |
| CCN1CCN(Cc2cccc3ccccc23)[C@@H](CCO)C1 | 1.9 nM |

---

target: Sigma intracellular receptor 2 (Homo sapiens, UniProt Q5BJF2); assay: Binding affinity to sigma 2 receptor (unknown origin)
Sequence (Q5BJF2 whole entry): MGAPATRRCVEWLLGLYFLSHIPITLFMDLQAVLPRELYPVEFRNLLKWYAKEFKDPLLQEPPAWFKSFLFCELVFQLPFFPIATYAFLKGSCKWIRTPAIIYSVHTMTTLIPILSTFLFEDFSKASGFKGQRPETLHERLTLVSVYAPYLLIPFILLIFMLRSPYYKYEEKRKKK

| compound_smiles | unit_of_measure | Ki |
| --- | --- | --- |
| COc1cc2c(cc1OC)CN(CCCCNC(=O)c1cc(C)ccc1OCC[18F])CC2 | nM | 2 |
| CCN(CC)CCNC(=O)c1ccc(OC)c([123I])c1 | nM | 206 |

---

Here the recorded pKi is given for each entry.
Molecular target: Sigma intracellular receptor 2 (Rattus norvegicus)
Sequence (Q5U3Y7 whole entry): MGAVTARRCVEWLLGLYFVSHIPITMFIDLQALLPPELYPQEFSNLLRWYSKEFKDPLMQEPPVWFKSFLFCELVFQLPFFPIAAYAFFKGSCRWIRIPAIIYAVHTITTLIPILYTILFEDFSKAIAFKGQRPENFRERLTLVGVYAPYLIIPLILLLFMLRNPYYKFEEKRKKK
Assay: Displacement of [3H]DTG from sigma 2 receptor expressed in rat liver membranes assessed as inhibition constant in presence of (+)-pentazocine by radioligand binding assay
Type: cell membranes, Membrane
pKi: −log10 of the molar value.

| molecule | pKi |
| --- | --- |
| Fc1cccc(F)c1[C@H]1CC[C@@H](N2CCN(C3CCCCC3)CC2)CC1 | 7.85 |
| CCCCCCNCC[C@@H]1CCC[C@H](c2ccccc2)O1 | 7.24 |
| COc1cccc(OC)c1[C@H]1CC[C@@H](N2CCN(C3CCCCC3)CC2)CC1 | 8.10 |
| CCCCCCNCC[C@H]1CCC[C@@H](c2ccccc2)O1 | 7.44 |
| CCCCCCCNCCC1CCN(C)C(c2ccccc2)C1 (stereo not given) | 6.55 |

---

target: Sigma non-opioid intracellular receptor 1 (Homo sapiens); test: Binding affinity to sigma 1 receptor (unknown origin)
Sequence (Q99720 whole entry): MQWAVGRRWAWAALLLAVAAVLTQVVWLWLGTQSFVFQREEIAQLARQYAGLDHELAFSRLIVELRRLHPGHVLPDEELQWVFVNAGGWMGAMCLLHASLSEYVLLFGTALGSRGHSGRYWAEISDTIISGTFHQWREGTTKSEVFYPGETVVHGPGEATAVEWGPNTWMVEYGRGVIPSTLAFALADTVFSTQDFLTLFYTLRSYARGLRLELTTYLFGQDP
value_type: Ki

| compound_smiles | recorded_measurement |
| --- | --- |
| O=c1sc2cc(CCCF)ccc2n1CCN1CCCCCC1 | 0.0025 nM |
| CCCN1CCC(c2cccc(S(C)(=O)=O)c2)CC1 | 17 nM |
| COc1cc2c(cc1OC)CN(CCCCNC(=O)c1cc(C)ccc1OCC[18F])CC2 | 23.9 nM |
| CCN(CC)CCNC(=O)c1ccc(OC)c([123I])c1 | 11.8 nM |

---

target: D(2) dopamine receptor (Homo sapiens)
Sequence (P14416 whole entry): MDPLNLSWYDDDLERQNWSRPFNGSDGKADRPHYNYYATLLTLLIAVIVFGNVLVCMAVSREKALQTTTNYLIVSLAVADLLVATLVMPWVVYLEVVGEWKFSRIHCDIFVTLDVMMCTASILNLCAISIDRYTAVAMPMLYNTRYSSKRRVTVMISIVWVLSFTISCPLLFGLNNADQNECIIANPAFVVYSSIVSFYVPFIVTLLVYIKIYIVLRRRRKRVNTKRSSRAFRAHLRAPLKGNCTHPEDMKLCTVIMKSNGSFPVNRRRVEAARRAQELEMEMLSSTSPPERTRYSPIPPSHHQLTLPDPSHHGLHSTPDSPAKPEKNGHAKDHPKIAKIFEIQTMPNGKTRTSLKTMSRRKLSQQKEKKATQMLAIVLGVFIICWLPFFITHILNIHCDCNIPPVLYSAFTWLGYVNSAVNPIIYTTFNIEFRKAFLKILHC
pKi: −log10 of the molar value.

| compound | pKi |
| --- | --- |
| CCCN1CCC(c2cccc(S(C)(=O)=O)c2)CC1 [PRIDOPIDINE] | 5.00 |

---

biological target: Sigma intracellular receptor 2 (Homo sapiens, UniProt Q5BJF2); test: Displacement of [H3]DTG from sigma 2 receptor (unknown origin) by competition binding assay
pKi: −log10 of the molar value.

| molecule | assay_target | pKi |
| --- | --- | --- |
| CN1C(=O)CCc2cc(CNC(C)(C)[C@@H](O)c3ccccc3)ccc21 | Sigma intracellular receptor 2 (Homo sapiens, UniProt Q5BJF2) | 8.40 |
| COc1ccc(C)cc1NC(=O)OC1CC2CCCC(C1)N2CCCCCCCCCCN (configuration not stated) | Sigma intracellular receptor 2 (Homo sapiens, UniProt Q5BJF2) | 8.11 |
